molecular target: hCA XII (Homo sapiens, UniProt O43570); assay: stopped-flow CO2 hydrase assay, hCA XII; format: biochemical; conditions: mean from three assays, errors ±5–10%
Sequence (O43570 25-354): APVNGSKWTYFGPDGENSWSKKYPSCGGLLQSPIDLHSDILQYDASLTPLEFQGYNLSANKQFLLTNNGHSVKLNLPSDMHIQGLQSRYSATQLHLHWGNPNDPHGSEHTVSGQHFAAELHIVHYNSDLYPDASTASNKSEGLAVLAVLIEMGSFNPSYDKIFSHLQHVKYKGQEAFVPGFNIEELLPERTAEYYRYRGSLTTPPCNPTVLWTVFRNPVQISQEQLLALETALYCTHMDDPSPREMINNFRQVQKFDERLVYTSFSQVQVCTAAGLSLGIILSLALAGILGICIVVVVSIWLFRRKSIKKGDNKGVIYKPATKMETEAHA
REPORTED METRIC: pKi
Please treat pKi as minus the base-10 logarithm of the molar concentration.

Query: Fill in: pKi of C#CCOc1ccc(S(N)(=O)=O)cc1.[C-]#[O+].[C-]#[O+].[C-]#[O+].[C-]#[O+].[C-]#[O+].[C-]#[O+].[Co].[Co] [1b] is ___
Result: 9.05

* * *

test system: Human Achilles tendon-derived tenocytes; test: cell metabolic activity (MTT test), basal conditions; assay type: cell-based; settings: 48 h exposure, 6.25–50 µM, vs untreated control
REPORTED METRIC: cell metabolic activity (MTT)

>>> value_measured("CC(=O)Nc1nnc(S(N)(=O)=O)s1 [AAZ, acetazolamide, reference compound]")
"still ineffective"
>>> value_measured("C#CCNc1ccc(S(N)(=O)=O)cc1 [A, 4-(prop-2-ynylamino)benzenesulfonamide, reference compound]")
"still ineffective"
>>> value_measured("C#CCOc1ccc(S(N)(=O)=O)cc1 [B, 4-(prop-2′-ynyloxy)benzenesulfonamide, reference compound]")
"still ineffective"
